- TESTED_ON: Helios (Homo sapiens, UniProt Q96SW2+Q9UKS7)
- Construct: fluorescently labelled antibodies against Helios and Ikaros; endogenous in cells; host or cells: Jurkat cells
- Sequence (Q9UKS7 whole entry): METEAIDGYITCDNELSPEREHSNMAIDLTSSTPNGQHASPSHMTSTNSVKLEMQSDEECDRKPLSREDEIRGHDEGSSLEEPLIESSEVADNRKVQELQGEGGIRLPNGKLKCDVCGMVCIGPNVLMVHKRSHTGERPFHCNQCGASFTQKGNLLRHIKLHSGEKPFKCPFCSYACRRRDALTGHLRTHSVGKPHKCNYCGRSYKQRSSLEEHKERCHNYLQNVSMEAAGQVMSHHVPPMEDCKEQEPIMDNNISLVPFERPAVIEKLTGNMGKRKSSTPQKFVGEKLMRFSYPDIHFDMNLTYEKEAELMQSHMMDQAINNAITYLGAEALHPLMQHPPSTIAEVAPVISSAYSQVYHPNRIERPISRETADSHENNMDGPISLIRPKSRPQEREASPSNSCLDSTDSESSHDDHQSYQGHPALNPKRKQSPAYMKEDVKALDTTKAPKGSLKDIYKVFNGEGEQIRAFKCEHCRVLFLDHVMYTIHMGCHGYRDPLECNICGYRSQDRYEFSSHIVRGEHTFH
- Sequence (Q96SW2 whole entry): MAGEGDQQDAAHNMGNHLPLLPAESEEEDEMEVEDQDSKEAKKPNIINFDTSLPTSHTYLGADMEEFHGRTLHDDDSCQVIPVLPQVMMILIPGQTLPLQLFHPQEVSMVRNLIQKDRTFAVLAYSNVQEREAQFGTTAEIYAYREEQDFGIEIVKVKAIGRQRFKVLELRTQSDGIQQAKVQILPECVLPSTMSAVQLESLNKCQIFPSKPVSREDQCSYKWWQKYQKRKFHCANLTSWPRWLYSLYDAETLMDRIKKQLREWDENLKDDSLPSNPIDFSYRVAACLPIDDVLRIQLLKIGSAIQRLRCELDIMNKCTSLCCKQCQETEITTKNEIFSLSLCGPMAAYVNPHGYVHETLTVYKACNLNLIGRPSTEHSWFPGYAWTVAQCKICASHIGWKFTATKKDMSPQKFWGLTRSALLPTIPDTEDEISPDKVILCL
- Sequence (Q16531 whole entry partner): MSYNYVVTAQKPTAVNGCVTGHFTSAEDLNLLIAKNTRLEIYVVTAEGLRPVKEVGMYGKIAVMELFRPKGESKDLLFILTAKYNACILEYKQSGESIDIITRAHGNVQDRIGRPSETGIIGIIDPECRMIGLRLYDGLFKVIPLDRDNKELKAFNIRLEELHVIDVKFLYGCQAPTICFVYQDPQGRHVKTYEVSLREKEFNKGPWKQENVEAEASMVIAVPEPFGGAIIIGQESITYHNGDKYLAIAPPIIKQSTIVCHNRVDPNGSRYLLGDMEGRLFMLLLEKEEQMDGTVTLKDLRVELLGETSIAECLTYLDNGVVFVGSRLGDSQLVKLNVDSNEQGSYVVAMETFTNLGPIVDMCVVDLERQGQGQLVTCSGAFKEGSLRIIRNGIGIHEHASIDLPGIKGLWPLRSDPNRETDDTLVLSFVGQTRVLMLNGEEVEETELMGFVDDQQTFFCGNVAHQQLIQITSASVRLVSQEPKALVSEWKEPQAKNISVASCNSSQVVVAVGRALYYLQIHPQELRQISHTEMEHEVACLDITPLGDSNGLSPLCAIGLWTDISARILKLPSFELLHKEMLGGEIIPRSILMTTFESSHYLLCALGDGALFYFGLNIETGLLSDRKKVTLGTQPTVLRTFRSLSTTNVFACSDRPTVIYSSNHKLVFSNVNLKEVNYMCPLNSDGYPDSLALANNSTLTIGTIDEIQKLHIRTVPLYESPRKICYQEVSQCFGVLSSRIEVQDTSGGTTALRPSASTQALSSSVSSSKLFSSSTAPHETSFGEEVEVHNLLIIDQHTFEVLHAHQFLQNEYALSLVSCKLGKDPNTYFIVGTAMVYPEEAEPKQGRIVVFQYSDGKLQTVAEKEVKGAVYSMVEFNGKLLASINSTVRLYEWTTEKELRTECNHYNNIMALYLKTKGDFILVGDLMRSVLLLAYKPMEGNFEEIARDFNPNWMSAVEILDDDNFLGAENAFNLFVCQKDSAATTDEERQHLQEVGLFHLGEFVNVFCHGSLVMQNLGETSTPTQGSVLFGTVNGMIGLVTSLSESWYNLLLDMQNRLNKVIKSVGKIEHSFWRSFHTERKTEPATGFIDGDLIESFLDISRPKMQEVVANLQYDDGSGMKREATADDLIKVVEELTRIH
- ASSAY_NOTES: Helios Cellular Degradation Assay (flow cytometry, Helios-PE antibody staining, 72 h)
- Type: cell-based
- RECORDED_CONDITIONS: Jurkat, Jurkat cells, 72 h incubation, flow cytometry; read-out: Helios Dmax
ASSAY_READOUT: Dmax (%)
Express the result in % but write the number alone.

Sample answers from the record:
CN(C)Cc1ccnc(-c2ccc3c(c2)CN(C2CCC(=O)NC2=O)C3=O)c1 (stereo not shown) = 84
O=C1CCC(N2Cc3cc(-c4cc(CNCC5CC5)ccn4)ccc3C2=O)C(=O)N1 (stereo not shown) = 73
CN(CCC(F)(F)F)Cc1ccnc(-c2ccc3c(c2)CN(C2CCC(=O)NC2=O)C3=O)c1 (stereo not shown) = 54

Just so you know, measured Dmax for O=C1CCC(N2Cc3cc(-c4cc(CN5CCC[C@@H](c6ccccc6)C5)ccn4)ccc3C2=O)C(=O)N1 (stereo partly shown) came out at 60

###

- TESTED_ON: Helios (Homo sapiens, UniProt Q96SW2+Q9UKS7)
- Construct: fluorescently labelled antibodies against Helios and Ikaros; endogenous in cells; host or cells: Jurkat cells
- ASSAY_NOTES: Helios Cellular Degradation Assay (flow cytometry, Helios-PE antibody staining, 72 h)
- Type: cell-based
- RECORDED_CONDITIONS: Jurkat cells, 72 h incubation, flow cytometry
Measured log10 of DC50 values are reported for all entries that follow.
Record value = log10 of DC50 given in nM.

For orientation, consider the following solved cases.
O=C1CCC(N2Cc3cc(-c4cc(CN(Cc5ccccc5)Cc5ccccc5)ccn4)ccc3C2=O)C(=O)N1 (stereo not shown) = 3.01
Cc1ccc(CN(C)Cc2ccnc(-c3ccc4c(c3)CN(C3CCC(=O)NC3=O)C4=O)c2)cc1 (stereo not shown) = 1.83
O=C1CCC(N2Cc3cc(-c4cc(CNCC5CC5)ccn4)ccc3C2=O)C(=O)N1 (stereo not shown) = 1.56
O=C1CCC(N2Cc3cc(-c4cc(CN5CCc6ccccc6C5)ccn4)ccc3C2=O)C(=O)N1 (stereo not shown) = 2.65
O=C1CCC(N2Cc3cc(-c4cc(CN5CCC[C@H]5c5ccccc5)ccn4)ccc3C2=O)C(=O)N1 (stereo partly shown) = 1.88

Now for another entry.
The reported value for CN(Cc1ccnc(-c2ccc3c(c2)CN(C2CCC(=O)NC2=O)C3=O)c1)Cc1ccc2ccccc2c1 (stereo not shown) in terms of log10 of DC50 is 3.04

###

- TESTED_ON: Helios (Homo sapiens, UniProt Q96SW2+Q9UKS7)
- Construct: fluorescently labelled antibodies against Helios and Ikaros; endogenous in cells; host or cells: Jurkat cells
- ASSAY_NOTES: Helios Cellular Degradation Assay (flow cytometry, Helios-PE antibody staining, 72 h)
- Type: cell-based
- RECORDED_CONDITIONS: Jurkat, Jurkat cells, 72 h incubation, flow cytometry; read-out: Helios Dmax
ASSAY_READOUT: Dmax (%)
# output: bare number, implied unit %

COC(=O)CCNCc1ccnc(-c2ccc3c(c2)CN(C2CCC(=O)NC2=O)C3=O)c1 (centres unmarked) [Example 112] = 74
CC(=O)N1CCN(Cc2ccnc(-c3ccc4c(c3)CN(C3CCC(=O)NC3=O)C4=O)c2)CC1 (centres unmarked) [Example 28] = 17
O=C1CCC(N2Cc3cc(-c4cc(CNCCCN5CCOCC5)ccn4)ccc3C2=O)C(=O)N1 (centres unmarked) [Example 114] = 83
COCCN(C)Cc1ccnc(-c2ccc3c(c2)CN(C2CCC(=O)NC2=O)C3=O)c1 (centres unmarked) [Example 7] = 85
CN(CC(=O)N(C)C)Cc1ccnc(-c2ccc3c(c2)CN(C2CCC(=O)NC2=O)C3=O)c1 (centres unmarked) [Example 34] = 26
O=C1CCC(N2Cc3cc(-c4cc(CN5CCC5c5ccccc5)c(Cl)cn4)ccc3C2=O)C(=O)N1 (centres unmarked) [Example 187] = 84
CC(C)CN(C)Cc1ccnc(-c2ccc3c(c2)CN(C2CCC(=O)NC2=O)C3=O)c1 (centres unmarked) [Example 179] = 78
CCN(CC)C(=O)C1CCCN(Cc2ccnc(-c3ccc4c(c3)CN(C3CCC(=O)NC3=O)C4=O)c2)C1 (centres unmarked) [Example 13] = 67

The measured Dmax associated with CC1(C)CN(Cc2ccnc(-c3ccc4c(c3)CN(C3CCC(=O)NC3=O)C4=O)c2)C1 (centres unmarked) [Example 51] reads 70

compound O=C1CCC(N2Cc3cc(-c4cc(CNCCc5cccc(Cl)c5)ccn4)ccc3C2=O)C(=O)N1 (centres unmarked) [Example 102] , Dmax observed: 97

Dmax reading for Cc1cc2c(cc1-c1cc(CN(C)C)ccn1)CN(C1CCC(=O)NC1=O)C2=O (centres unmarked) [Example 194] : 5.16

Form field Dmax, entry O=C1CCC(N2Cc3cc(-c4cc(CNC5CCC5)ccn4)ccc3C2=O)C(=O)N1 (centres unmarked) [Example 108] : 84

Lab book: Dmax of CCNCc1ccnc(-c2ccc3c(c2)CN(C2CCC(=O)NC2=O)C3=O)c1 (centres unmarked) [Example 116] noted as 88

Quick note, Dmax for O=C1CCC(N2Cc3cc(-c4cc(CNC5CC5)ccn4)ccc3C2=O)C(=O)N1 (centres unmarked) [Example 109] landed at 75

Just so you know, measured Dmax for CC1CCCC(C)N1Cc1ccnc(-c2ccc3c(c2)CN(C2CCC(=O)NC2=O)C3=O)c1 (centres unmarked) [Example 53] came out at 77

# Dmax of CC1(C)CCCN(Cc2ccnc(-c3ccc4c(c3)CN(C3CCC(=O)NC3=O)C4=O)c2)C1 (centres unmarked) [Example 85] = 20

get_value(item= CC(NCc1ccnc(-c2ccc3c(c2)CN(C2CCC(=O)NC2=O)C3=O)c1)c1ccccc1 (centres unmarked) [Example 55] , readout=Dmax) returns 91

Reported Dmax of CN[C@@H]1CCCC[C@H]1N(C)Cc1ccnc(-c2ccc3c(c2)CN(C2CCC(=O)NC2=O)C3=O)c1 (some centres unmarked) [Example 140] : 76

Quick note, Dmax for NCc1ccnc(-c2ccc3c(c2)CN(C2CCC(=O)NC2=O)C3=O)c1 (centres unmarked) [Example 144] landed at 57

Value of measured Dmax for the entry O=C1CCC(N2Cc3cc(-c4cc(CN5CCC5)ccn4)ccc3C2=O)C(=O)N1 (centres unmarked) [Example 165] : 95

Value of Dmax reported for the compound O=C1CCC(N2Cc3cc(-c4cc(CNCCc5ccc(Cl)cc5)ccn4)ccc3C2=O)C(=O)N1 (centres unmarked) [Example 94] is 74

The recorded Dmax for entry CN(Cc1ccnc(-c2ccc3c(c2)CN(C2CCC(=O)NC2=O)C3=O)c1)Cc1cnc2ccccc2n1 (centres unmarked) [Example 183] equals 76

The value of Dmax measured for the compound CN(Cc1ccnc(-c2ccc3c(c2)CN(C2CCC(=O)NC2=O)C3=O)c1)CC1CCCC1 (centres unmarked) [Example 175] turned out to be 78

###

- TESTED_ON: Helios (Homo sapiens, UniProt Q96SW2+Q9UKS7)
- Construct: fluorescently labelled antibodies against Helios and Ikaros; endogenous in cells; host or cells: Jurkat cells
- ASSAY_NOTES: Helios Cellular Degradation Assay (flow cytometry, Helios-PE antibody staining, 72 h)
- Assay type: cell-based
- RECORDED_CONDITIONS: Jurkat cells, 72 h incubation, flow cytometry
// boundary case: DC50 equal to 60 nM maps to criterion not met; strictly smaller maps to criterion met

A selection of reference data follows.
O=C1CCC(N2Cc3cc(-c4cc(CNCC5CCO5)ccn4)ccc3C2=O)C(=O)N1 (stereo not shown) [Example 129] = criterion not met
O=C1CCC(N2Cc3cc(-c4cc(CN5CCN(C(=O)c6ccco6)CC5)ccn4)ccc3C2=O)C(=O)N1 (stereo not shown) [Example 24] = criterion not met
CN(C)[C@@H]1CCN(Cc2ccnc(-c3ccc4c(c3)CN(C3CCC(=O)NC3=O)C4=O)c2)C1 (stereo partly shown) [Example 45] = criterion not met
CN(Cc1ccnc(-c2ccc3c(c2)CN(C2CCC(=O)NC2=O)C3=O)c1)Cc1ccc(F)c(F)c1 (stereo not shown) [Example 152] = criterion not met
O=C1CCC(N2Cc3cc(-c4cc(CN5CCC5)ccn4)ccc3C2=O)C(=O)N1 (stereo not shown) [Example 165] = criterion met
CCN(C)Cc1ccnc(-c2ccc3c(c2)CN(C2CCC(=O)NC2=O)C3=O)c1 (stereo not shown) [Example 5] = criterion met

## Task Hello, is DC50 of the following compound strictly smaller than 60 nM? CC(C)N1CCN(Cc2ccnc(-c3ccc4c(c3)CN(C3CCC(=O)NC3=O)C4=O)c2)CC1 (stereo not shown) [Example 44]
## Result criterion not met

## Task Hello, is DC50 of the following compound strictly smaller than 60 nM? CC(CCO)N(C)Cc1ccnc(-c2ccc3c(c2)CN(C2CCC(=O)NC2=O)C3=O)c1 (stereo not shown) [Example 185]
## Result criterion not met

## Task Threshold test, DC50 < 60 nM: CN[C@@H]1CCCC[C@H]1N(C)Cc1ccnc(-c2ccc3c(c2)CN(C2CCC(=O)NC2=O)C3=O)c1 (stereo partly shown) [Example 140]
## Result criterion met

## Task Criterion: DC50 strictly below 60 nM. Is it met by CN(Cc1ccnc(-c2ccc3c(c2)CN(C2CCC(=O)NC2=O)C3=O)c1)Cc1cccc2[nH]ncc12 (stereo not shown) [Example 169] ?
## Result criterion not met

## Task In the record for CCCN(C)Cc1ccnc(-c2ccc3c(c2)CN(C2CCC(=O)NC2=O)C3=O)c1 (stereo not shown) [Example 3] , is DC50 less than 60 nM?
## Result criterion met

## Task I wonder whether CC(C)(C)NCc1ccnc(-c2ccc3c(c2)CN(C2CCC(=O)NC2=O)C3=O)c1 (stereo not shown) [Example 89] has DC50 below 60 nM. Can you tell?
## Result criterion not met

## Task Consider O=C1CCC(N2Cc3cc(-c4cc(CN5CCC5c5ccccc5)c(F)cn4)ccc3C2=O)C(=O)N1 (stereo not shown) [Example 189] . Does its DC50 lie strictly below 60 nM?
## Result criterion met

## Task Would you kindly verify if DC50 of C[C@@H]1C[C@H](C)CN(Cc2ccnc(-c3ccc4c(c3)CN(C3CCC(=O)NC3=O)C4=O)c2)C1 (stereo partly shown) [Example 81] is strictly less than 60 nM?
## Result criterion not met

## Task Just wondering, is DC50 of O=C1CCC(N2Cc3cc(-c4cc(CNCCc5ccccc5Cl)ccn4)ccc3C2=O)C(=O)N1 (stereo not shown) [Example 93] below 60 nM?
## Result criterion met

## Task For NCc1ccnc(-c2ccc3c(c2)CN(C2CCC(=O)NC2=O)C3=O)c1 (stereo not shown) [Example 144] , is the recorded DC50 below the cut-off of 60 nM?
## Result criterion not met
